- ASSAY TARGET: T1, canine NGF tagged at the C-terminus with the Flag tag (canine, UniProt A0A8I3PYI3 122-241)
- T1 construct: mature; Expressed with baculovirus technology; also called feline NGF (processed form identical)
- T1 sequence (A0A8I3PYI3 entry or part of it): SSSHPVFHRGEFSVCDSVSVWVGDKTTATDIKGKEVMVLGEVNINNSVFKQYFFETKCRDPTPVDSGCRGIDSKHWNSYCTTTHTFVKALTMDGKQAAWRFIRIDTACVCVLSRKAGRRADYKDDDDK
- EXPERIMENT NOTES: SPR off-rate screen, Fab-SASA on BSA chip
MEASURED PROPERTY: kon (M⁻¹ s⁻¹)

>  <BINDER>
felinized clone 101 Fab-SASA variant Y52W (VH) (Fab, V domains shown, not shown: small tags and cut ends) VH: DVQLVESGGDLVKPGGSLRLTCVASGLSLTSSSMSWVRQAPGKGLQWVSTIWSNGGTYYTDSVKGRFTISKDNAENTLYLQMNNLKTEDTATYYCASIYYYDADYLHWYFDFWGQGALVTVSS VL: EIQMTQSPTSLSASVGDRVTITCRASEGISNNLSWYQQTPGKAPKLLIYATSNLHSGVPSRFSGSGSGTDFTLTISSLQPEDFATYYCQQGYKWPLTFGGGTKLEITR

>  <MEASUREMENT UNIT>
M⁻¹ s⁻¹

>  <NUMBER>
434000

$$$$
>  <BINDER>
felinized clone 101 Fab-SASA variant G55R (VH) (Fab, V domains shown, not shown: small tags and cut ends) VH: DVQLVESGGDLVKPGGSLRLTCVASGLSLTSSSMSWVRQAPGKGLQWVSTIYSNRGTYYTDSVKGRFTISKDNAENTLYLQMNNLKTEDTATYYCASIYYYDADYLHWYFDFWGQGALVTVSS VL: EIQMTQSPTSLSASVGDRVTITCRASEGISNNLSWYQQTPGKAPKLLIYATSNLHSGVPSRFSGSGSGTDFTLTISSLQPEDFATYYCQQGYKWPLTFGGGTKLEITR

>  <MEASUREMENT UNIT>
M⁻¹ s⁻¹

>  <NUMBER>
120000

$$$$
>  <BINDER>
felinized clone 101 Fab-SASA variant S56D (VL) (Fab, V domains shown, not shown: small tags and cut ends) VH: DVQLVESGGDLVKPGGSLRLTCVASGLSLTSSSMSWVRQAPGKGLQWVSTIYSNGGTYYTDSVKGRFTISKDNAENTLYLQMNNLKTEDTATYYCASIYYYDADYLHWYFDFWGQGALVTVSS VL: EIQMTQSPTSLSASVGDRVTITCRASEGISNNLSWYQQTPGKAPKLLIYATSNLHDGVPSRFSGSGSGTDFTLTISSLQPEDFATYYCQQGYKWPLTFGGGTKLEITR

>  <MEASUREMENT UNIT>
M⁻¹ s⁻¹

>  <NUMBER>
372000

$$$$
